Hi there, I'd appreciate the recorded protein stability index for every entry that follows.
B1: MYBL2 (parent)
chain: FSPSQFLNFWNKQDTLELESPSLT

Variants of: B1
Assay: protein stability index of a GFP-peptide fusion (GPS, HEK-293T) (PSI 1-6); higher = more stable;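 further: lentivirally expressed fusions sorted by FACS into six bins by GFP to DsRed ratio, PSI derived from sequencing read proportions per bin multiplied by bin number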
Settings: c terminus: a fixed tail appended
// print number alone

Give the measured protein stability index of L23C . 2.71

Give the measured protein stability index of F9W . 2.84

Give the measured protein stability index of F6A . 2.02

Give the measured protein stability index of W10Y . 2.63

Give the measured protein stability index of L23H . 2.79

Give the measured protein stability index of F6C . 1.61

Give the measured protein stability index of F1T . 3.75

Give the measured protein stability index of L16I . 2.58

Give the measured protein stability index of E19R . 2.75

Give the measured protein stability index of L18Q . 3.72

Give the measured protein stability index of L18F . 3.19

Give the measured protein stability index of L16K . 2.75

Give the measured protein stability index of L23A . 2.08

Give the measured protein stability index of P21L . 3.37

Give the measured protein stability index of T15D . 2.09

Give the measured protein stability index of P21I . 3.74

Give the measured protein stability index of Q5G . 3.07

Give the measured protein stability index of Q13N . 3.24

Give the measured protein stability index of Q5F . 2.31

Give the measured protein stability index of S22V . 2.95

Give the measured protein stability index of Q13I . 4.44

Give the measured protein stability index of W10R . 2.62

Give the measured protein stability index of F1P . 4.2

Give the measured protein stability index of F9S . 1.83

Give the measured protein stability index of P3T . 2.94

Give the measured protein stability index of D14P . 2.98

Give the measured protein stability index of S2N . 2.38

Give the measured protein stability index of F9G . 1.6

Give the measured protein stability index of E17K . 2.48

Give the measured protein stability index of S2V . 3.06

Give the measured protein stability index of T15K . 2.68

Give the measured protein stability index of D14A . 2.94

Give the measured protein stability index of L18D . 2.79

Give the measured protein stability index of E19S . 2.07

Give the measured protein stability index of E17N . 2.33

Give the measured protein stability index of S2E . 2.08

Every entry's value here was drawn from the supplement of paper PMC10567573.
